# Target Or System: hGYS1 enzyme (recombinant hGYS1/GN1 protein) (Homo sapiens (Human))
# Sequence (P13807 whole entry): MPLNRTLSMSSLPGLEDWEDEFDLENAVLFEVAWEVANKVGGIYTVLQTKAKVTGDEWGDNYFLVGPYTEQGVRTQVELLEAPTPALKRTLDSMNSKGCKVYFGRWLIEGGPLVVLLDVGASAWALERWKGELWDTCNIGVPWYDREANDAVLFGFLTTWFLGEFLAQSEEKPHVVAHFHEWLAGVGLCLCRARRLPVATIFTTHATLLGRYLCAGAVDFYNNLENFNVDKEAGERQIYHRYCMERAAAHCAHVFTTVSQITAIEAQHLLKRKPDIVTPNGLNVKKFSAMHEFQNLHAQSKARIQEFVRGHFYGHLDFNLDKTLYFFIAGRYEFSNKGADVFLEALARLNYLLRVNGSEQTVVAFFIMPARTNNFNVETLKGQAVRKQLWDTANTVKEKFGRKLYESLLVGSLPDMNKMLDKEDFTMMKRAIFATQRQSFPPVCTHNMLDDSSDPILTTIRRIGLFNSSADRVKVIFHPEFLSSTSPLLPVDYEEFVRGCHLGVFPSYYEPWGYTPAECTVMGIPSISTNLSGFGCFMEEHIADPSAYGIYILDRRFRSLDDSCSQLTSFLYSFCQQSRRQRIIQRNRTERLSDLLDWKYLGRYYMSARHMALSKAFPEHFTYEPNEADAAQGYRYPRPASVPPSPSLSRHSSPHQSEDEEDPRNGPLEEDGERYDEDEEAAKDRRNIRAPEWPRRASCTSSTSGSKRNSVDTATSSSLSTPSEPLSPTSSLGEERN
# Sequence (P46976 whole entry partner): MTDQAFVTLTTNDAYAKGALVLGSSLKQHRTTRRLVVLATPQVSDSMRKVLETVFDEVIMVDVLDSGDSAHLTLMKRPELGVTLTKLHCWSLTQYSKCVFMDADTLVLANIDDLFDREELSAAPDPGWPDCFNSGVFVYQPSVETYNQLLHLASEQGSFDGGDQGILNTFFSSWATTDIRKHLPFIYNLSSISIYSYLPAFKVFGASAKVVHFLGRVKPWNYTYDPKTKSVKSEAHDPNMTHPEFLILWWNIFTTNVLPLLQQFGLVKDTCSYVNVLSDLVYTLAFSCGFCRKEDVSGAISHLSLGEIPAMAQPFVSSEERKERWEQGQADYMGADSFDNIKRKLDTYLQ
# Test Summary: GYS1 coupled enzyme assay (PK/LDH)
# Applied Conditions: hGYS1/GN1 50 nM, UDP-Glucose 0.8 mM, G6P 1 mM; geometric mean of at least 2 runs
# From the text: The GYS1 coupled enzyme assay is a kinetic biochemical assay that indirectly quantifies the rate of glycogen synthesis by coupling the conversion of GYS1 substrate UDP-glucose into UDP with downstream enzymatic reactions. UDP is released from UDP-glucose as glucose monomers are linked into the growing glycogen strand by GYS1. […] Oxidation of NADH to NAD+ can be measured continuously with a plate reader by quantifying the decrease in NADH absorbance at 340 nm over time. […]
1 if IC50 is below 200 nM. 0 if not; exact matches included in 0.

Compound: CC(C(=O)N1C[C@H](F)C[C@H]1C(=O)N[C@@H](c1ccccc1)c1ccc(C2CC2)c(F)c1)n1cnc2ccccc21 (single isomer, unassigned) [Compound 809]
Assigned Category: 1

Request: Answer whether the compound CC(C)c1ccc([C@@H](NC(=O)[C@@H]2CCCN2C(=O)Cc2cnn[nH]2)c2cccc3[nH]c(=O)[nH]c23)cc1 has IC50 strictly less than 200 nM
Result: 0

Request: Answer whether the compound CC(=O)N1CCCC(C)(C(=O)N2C[C@H](F)C[C@H]2C(=O)N[C@@H](c2ccccc2)c2ccc(C(C)C)cc2)C1 (stereo partly drawn) has IC50 strictly less than 200 nM
Result: 0

Request: Answer whether the compound CC(=O)N1CC2(CC(C(=O)N3C[C@H](F)C[C@H]3C(=O)N[C@@H](c3ccccc3)c3ccc(C(C)C)cc3)=NO2)C1 has IC50 strictly less than 200 nM
Result: 0

Request: Answer whether the compound CC(C)c1ccc([C@H](NC(=O)[C@@H]2C[C@@H](F)CN2C(=O)Cc2cnn[nH]2)c2cccc(-c3ccn[nH]3)c2)nc1F has IC50 strictly less than 200 nM
Result: 0

Request: Answer whether the compound CC(C)c1ccc([C@@H](NC(=O)[C@@H]2C[C@@H](F)CN2C(=O)Cc2noc(C(C)C)n2)c2ccccc2)cc1 has IC50 strictly less than 200 nM
Result: 1
